Target: T1, murine IL-11 (mouse, UniProt P47873 22-199)
T1 sequence: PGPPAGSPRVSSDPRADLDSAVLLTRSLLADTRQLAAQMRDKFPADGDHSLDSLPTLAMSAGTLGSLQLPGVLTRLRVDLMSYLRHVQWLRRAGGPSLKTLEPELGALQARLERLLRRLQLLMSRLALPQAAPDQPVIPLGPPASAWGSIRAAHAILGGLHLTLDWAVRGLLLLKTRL
Experiment: cell-based or functional assay
Reported RGA IC50 is given for each of the following binders.
The reply should contain only the number, in nM.

Prompt: May I ask what RGA IC50 has been recorded for TPP-26324 (antibody, V domains shown) VH: EVQLLESGGGLVQPGGSLRLSCAASGFTFSSYGMHWVRQAPGKGLEWVSVISYDGSYKYYRDSVKGRFTISRDNSKNTLYLQMNSLRAEDTAVYYCAAGVPDYWGQGTLVTVSS VL: QSVLTQPPSASGTPGQRVTISCTGSSSNIGAGYDVHWYQQLPGTAPKLLIYSNNERPSGVPDRFSGSKSGTSASLAISGLRSEDEADYYCAAWDDSLNGPVFGGGTKLTVL ?
Response: 1.3

Prompt: May I ask what RGA IC50 has been recorded for TPP-26321 (antibody, V domains shown) VH: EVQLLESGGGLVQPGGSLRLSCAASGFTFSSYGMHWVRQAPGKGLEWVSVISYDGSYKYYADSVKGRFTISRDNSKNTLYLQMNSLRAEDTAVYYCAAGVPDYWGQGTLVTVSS VL: QSVLTQPPSASGTPGQRVTISCTGSSSNIGAGYDVHWYQQLPGTAPKLLIYSNNERPSGVPDRFSGSKSGTSASLAISGLRSEDEADYYCAAWDLSLNGPVFGGGTKLTVL ?
Response: 1.1

Prompt: May I ask what RGA IC50 has been recorded for TPP-26310 (antibody, V domains shown) VH: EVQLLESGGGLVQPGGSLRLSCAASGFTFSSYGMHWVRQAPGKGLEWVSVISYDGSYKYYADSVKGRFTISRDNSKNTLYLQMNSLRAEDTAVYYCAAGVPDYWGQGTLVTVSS VL: QSVLTQPPSASGTPGQRVTISCTGSSSNIGAGYDVHWYQQLPGTAPKLLIYSNNERPWGVPDRFSGSKSGTSASLAISGLRSEDEADYYCAAWDDSLNGPVFGGGTKLTVL ?
Response: 1.1

Prompt: May I ask what RGA IC50 has been recorded for TPP-26314 (antibody, V domains shown) VH: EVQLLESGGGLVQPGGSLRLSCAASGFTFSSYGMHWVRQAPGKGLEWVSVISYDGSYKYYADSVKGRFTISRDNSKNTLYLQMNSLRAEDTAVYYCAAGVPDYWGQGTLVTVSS VL: QSVLTQPPSASGTPGQRVTISCTGSSSNIGAGYDVHWYQQLPGTAPKLLIYSNNERPSGVPDRFSGSKSGTSASLAISGLRSEDEADYYCAAWDWSLNGPVFGGGTKLTVL ?
Response: 0.8

More entries:
Prompt: May I ask what RGA IC50 has been recorded for TPP-26329 (antibody, V domains shown) VH: EVQLLESGGGLVQPGGSLRLSCAASGFTFSSWGMHWVRQAPGKGLEWVSVISYDGSYKYYADSVKGRFTISRDNSKNTLYLQMNSLRAEDTAVYYCAAGVPDYWGQGTLVTVSS VL: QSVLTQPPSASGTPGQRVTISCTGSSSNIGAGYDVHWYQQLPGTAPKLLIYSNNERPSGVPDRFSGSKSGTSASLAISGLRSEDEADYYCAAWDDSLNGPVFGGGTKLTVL ?
Response: 1

Prompt: May I ask what RGA IC50 has been recorded for TPP-26333 (antibody, V domains shown) VH: EVQLLESGGGLVQPGGSLRLSCAASGFTFSSYGFHWVRQAPGKGLEWVSVISYDGSYKYYADSVKGRFTISRDNSKNTLYLQMNSLRAEDTAVYYCAAGVPDYWGQGTLVTVSS VL: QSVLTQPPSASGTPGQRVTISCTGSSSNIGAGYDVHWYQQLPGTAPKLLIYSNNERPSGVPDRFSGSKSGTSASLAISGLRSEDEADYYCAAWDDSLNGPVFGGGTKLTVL ?
Response: 1.2

Prompt: May I ask what RGA IC50 has been recorded for TPP-26291 (antibody, V domains shown) VH: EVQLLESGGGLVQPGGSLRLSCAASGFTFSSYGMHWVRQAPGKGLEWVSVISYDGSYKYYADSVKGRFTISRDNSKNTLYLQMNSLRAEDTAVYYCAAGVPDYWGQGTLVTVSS VL: QSVLTQPPSASGTPGQRVTISCTGSSSNIGAGYDVHWYQQLPGTAPKLLIYSNNERPSGVPDRFSGSKSGTSASLAISGLRSEDEADYYCAAWDPSLNGPVFGGGTKLTVL ?
Response: 1.6

Prompt: May I ask what RGA IC50 has been recorded for TPP-26318 (antibody, V domains shown) VH: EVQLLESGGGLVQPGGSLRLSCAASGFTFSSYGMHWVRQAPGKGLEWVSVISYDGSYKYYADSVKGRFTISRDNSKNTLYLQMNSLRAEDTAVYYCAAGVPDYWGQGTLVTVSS VL: QSVLTQPPSASGTPGQRVTISCTGSSSNIGAGYFVHWYQQLPGTAPKLLIYSNNERPSGVPDRFSGSKSGTSASLAISGLRSEDEADYYCAAWDDSLNGPVFGGGTKLTVL ?
Response: 4.7

Prompt: May I ask what RGA IC50 has been recorded for TPP-26327 (antibody, V domains shown) VH: EVQLLESGGGLVQPGGSLRLSCAASGFTFSSYGMHWVRQAPGKGLEWVSVIRYDGSYKYYADSVKGRFTISRDNSKNTLYLQMNSLRAEDTAVYYCAAGVPDYWGQGTLVTVSS VL: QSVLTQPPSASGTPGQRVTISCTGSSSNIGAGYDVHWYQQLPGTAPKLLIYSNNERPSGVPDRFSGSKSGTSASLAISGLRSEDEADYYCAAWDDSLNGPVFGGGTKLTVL ?
Response: 470

Prompt: May I ask what RGA IC50 has been recorded for TPP-26302 (antibody, V domains shown) VH: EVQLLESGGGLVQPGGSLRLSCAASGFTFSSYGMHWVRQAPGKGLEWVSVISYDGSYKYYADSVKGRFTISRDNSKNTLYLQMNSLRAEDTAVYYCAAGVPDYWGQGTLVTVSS VL: QSVLTQPPSASGTPGQRVTISCTGSSSNIGAGYDVHWYQQLPGTAPKLLIYSNNERPSGVPDRFSGSKSGTSASLAISGLRSEDEADYYCSAWDDSLNGPVFGGGTKLTVL ?
Response: 1.1
